Where these numbers come from: PubChem BioAssay (NCI)

System: NCI-H23 lung
Experiment: NCI-60 one-dose screen, 48 h (100 = growth as untreated, 0 = no growth, -100 = all killed)
Conditions: 10 µM unless noted
About 83,000 compounds went through this panel and 20% of them were active in at least one assay; those are over-represented in the sample as a whole.
Examples of compounds with documented growth follow.

| Smiles | Test Target | growth / % |
| --- | --- | --- |
| Cn1cc(-c2cc(N)n3nc(-c4cn(C)c5ncc(Br)cc45)cc3n2)c2cc(Br)cnc21 | NCI-H23 lung | -31.1 |
| Cc1cc(N=C2NC(=O)CS2)n[nH]1 | NCI-H23 lung | 110 |
| N#Cc1c(-c2cccc(Cl)c2Cl)cc(-c2ccc3ccccc3c2)[nH]c1=O | NCI-H23 lung | 56.9 |
| CCN(CC)c1ccnc(CNCCSC(c2ccccc2)(c2ccccc2)c2ccc(C)cc2)c1 | NCI-H23 lung | -78.7 |
| NS(=O)(=O)c1ccc(-n2cc(-c3cccc(NC(=O)c4cc(N5CCOCC5)cc(C(F)(F)F)c4)c3)nn2)cc1 | NCI-H23 lung | 54.7 |

###

Test system: DU-145 prostate
Experiment: NCI-60 one-dose screen, 48 h
Conditions: 10 µM unless noted
About 83,000 compounds went through this panel and 20% of them were active in at least one assay; those are over-represented in the sample as a whole. The source made the active and inactive calls. The calls were made as follows: active = growth percent below 10; inactive = the rest.
Classes used: active, inactive

| Compound | Test Target | Class Label |
| --- | --- | --- |
| CC1=C(C(=O)c2ccccc2)C(c2ccc(-n3cncn3)cc2)n2c(nc3ccccc32)N1 (stereo not drawn) | DU-145 prostate | inactive |
| O=C(/C=C/Nc1ccc2oc(=O)ccc2c1)c1cc2cc(Br)ccc2oc1=O | DU-145 prostate | inactive |
| O=C(NN1C(=O)/C(=C/C=C/c2ccc([N+](=O)[O-])o2)SC1=S)c1ccc(Cl)cc1 | DU-145 prostate | active |
| CCN(CC)c1ccc(/C=N/Nc2nc(-c3ccc(C)cc3)cs2)c(O)c1 | DU-145 prostate | inactive |
| Clc1cccc(N/N=C/c2c[nH]c3ccc(Br)cc23)n1 | DU-145 prostate | inactive |
| CC(=O)OCC1OC(OC2C(COC(C)=O)OC(n3cc(COc4ccc5ccc(=O)oc5c4)nn3)C(OC(C)=O)C2OC(C)=O)C(OC(C)=O)C(OC(C)=O)C1OC(C)=O (stereo not drawn) | DU-145 prostate | inactive |
| COc1ccc(/C=C2\C(=O)Nc3ccc(Cl)cc32)cc1OCc1ccccn1 | DU-145 prostate | inactive |
| C=C1CC[C@@H]2[C@]3(C)COC(c4ccco4)O[C@@H]3CC[C@@]2(C)[C@@H]1C/C=C1/C(=O)OCC1OC(C)=O (stereo partly drawn) | DU-145 prostate | inactive |
| O=C(O)c1ccc(-c2ccc(/C=N/NC(=O)c3[nH]c4ccc(Br)cc4c3-c3ccccc3)s2)cc1 | DU-145 prostate | inactive |
| COc1ccc(-c2cc(C(=O)NCc3ccccc3)nn2-c2ccc(S(C)(=O)=O)cc2)cc1OC | DU-145 prostate | inactive |
| Cc1cc(C)n(-c2ccc3nnc(-c4ccccc4)n3n2)n1 | DU-145 prostate | inactive |
| CC1=C(C(=O)c2ccccc2)C(c2cccc3ccccc23)n2c(nc3ccccc32)N1 (stereo not drawn) | DU-145 prostate | inactive |
| COc1ccc2oc(=O)c(C3(C)NC(=O)c4c(/C=C/C(=O)OC(C)(C)C)cccc4N3)cc2c1 (stereo not drawn) | DU-145 prostate | inactive |
| O=S(=O)(Nc1cccc(-n2cnc3cc(-c4ccc(O)cc4)ccc32)c1)C1CC1 | DU-145 prostate | inactive |
| Cc1ccc2c(c1)nc(-c1ccccc1)n2CC(=O)N=Nc1c(O)[nH]c2ccc(Br)cc12 | DU-145 prostate | active |
| COc1cc2c(c(OC)c1OC)C(=O)CC(c1cccc(NC(=O)c3cccc(NC(=O)[C@H](C)NC(=O)OC(C)(C)C)c3)c1)O2 (stereo partly drawn) | DU-145 prostate | inactive |
| Cc1nc(Nc2ccccn2)sc1C(=O)CC(SCC(=O)Nc1ccc(Cl)cc1)c1ccccc1F (stereo not drawn) | DU-145 prostate | active |
| COc1cccc(-c2nc(Nc3ccc(S(N)(=O)=O)cc3)c3ccccc3n2)c1 | DU-145 prostate | inactive |

###

Tested on: OVCAR-4 ovarian
Experiment: NCI-60 one-dose screen, 48 h
Settings: 10 µM unless noted
Procedure: Growth inhibition of the OVCAR-4 human tumor cell line is measured as a screen for anti-cancer activity. Cells are grown in 96 well plates and exposed to the test compound for 48 hours. Compounds are tested at a single concentration, which is 10^-5 M for most compounds. The reported endpoint is percent growth (GI% or GIPRCNT), where numbers from 0 - 100% represent growth inhibition, and numbers from -100% - 0 represent cell death. For example, a value of 40 represents 60% growth inhibition. […]
This is part of a sample that, as a whole, favours compounds with a hit. Of some 83,000 tested, about 20% had one in any assay. Active and inactive are the calls of the source. The calls were made as follows: active = growth percent below 10; inactive = the rest.
Classes used: active, inactive

| Molecule | Class Label |
| --- | --- |
| COc1ccc2[nH]cc(-c3nnc(N)nc3-c3cn(C)c4ncc(Br)cc34)c2c1 | inactive |
| O=C(c1ccc(OCCN2CCOCC2)cc1)C1[C@H](c2ccc(Cl)cc2)[C@@H](c2ccccc2)NC12C(=O)Nc1ccc(Cl)cc12 (some centres not stated) | inactive |
| CNC(=O)c1cc(Oc2ccc3nc(NC(=O)Nc4cccc(OC(F)(F)F)c4)sc3c2)ccn1 | inactive |
| COc1ccc(-c2nc(SC(C)C)nc(NCCc3c[nH]c4ccccc34)c2C#N)cc1 | inactive |
| COc1ccc(-c2cc(C(=O)NCc3ccccc3)nn2-c2ccc(S(C)(=O)=O)cc2)cc1OC | inactive |
| CC(=O)OCC1OC(OC2C(COC(C)=O)OC(n3cc(COc4ccc5ccc(=O)oc5c4)nn3)C(OC(C)=O)C2OC(C)=O)C(OC(C)=O)C(OC(C)=O)C1OC(C)=O (configuration not stated) | inactive |
| CC1(C)CC[C@]2(C(=O)Nc3ccccc3)CC[C@]3(C)C(=CCC4[C@@]5(C)C[C@@H](O)[C@H](O)[C@@](C)(CO)C5CC[C@]43C)C2C1 (some centres not stated) | inactive |
| Cc1sc(C(NC(=O)OCCn2c([N+](=O)[O-])cnc2C)C(F)(F)Cl)nc1-c1ccc(OC(F)(F)F)cc1 (configuration not stated) | active |
| C=C1CCC2C3(C)COC(c4ccco4)OC3CCC2(C)C1CC(Sc1ccccc1)C1=CCOC1=O (configuration not stated) | inactive |
| CC(C)CSc1nc(NCCc2c[nH]c3ccccc23)c(C#N)c(-c2ccccc2)n1 | inactive |
| CC(C)c1ccc2c(N)c(C(=O)Nc3ccc(C(F)(F)F)cn3)sc2n1 | inactive |
| C/C(=N\N=C1/C(=O)Nc2ccccc21)c1ccc2c(c1)Nc1ccccc1S2 | inactive |
| CN(C)c1nc(NCCNS(=O)(=O)c2ccc(C(=O)/C=C/c3ccc(Cl)cc3)cc2)nc(Nc2ccc(F)cc2)n1 | active |
| CC(/C=C1\SC(=S)N(CCCC(=O)NC(CC(C)C)C(=O)O)C1=O)=C\c1ccccc1 (configuration not stated) | inactive |
| O=c1[nH]c2ccccc2cc1CSc1cccc(Nc2nccc(-c3ccc4ccccc4c3)n2)c1 | inactive |
| O=c1[nH]n(C(=S)N/N=C/c2ccccc2Cl)c(=O)c2ccccc12 | inactive |
| COc1ccc(C(=O)/C=C/c2cc3c(cc2Br)OCO3)cc1S(N)(=O)=O | inactive |

###

Examples of molecules with documented growth follow.
Test system: OVCAR-3 ovarian
Experiment: NCI-60 one-dose screen, 48 h (100 = growth as untreated, 0 = no growth, -100 = all killed)
Conditions: 10 µM unless noted
Compounds without any hit were thinned out: in the full panel of roughly 83,000, 20% have a hit.

| Molecule | growth, % |
| --- | --- |
| CSc1ccccc1NC(=O)c1ccc2nn(/C(C#N)=C/c3ccccn3)nc2c1 | -87.8 |
| C[C@H](Nc1nc(NCCc2ccccc2)nc2ccccc12)c1ccccc1 | -70.1 |
| CC(C)c1sc(NC(=O)c2cc(NC(=O)c3cc(NC(=O)c4cscn4)cn3C)cn2C)nc1C(=O)NCCCN(C)C | 3.57 |
| CN(C)c1ccnc(CNCCSC2(c3ccc(C(F)(F)F)cc3)c3ccccc3CCc3ccccc32)c1 | -36.5 |
| N/C(=N\c1nc2ccccc2s1)NC(=O)Nc1ccccc1Br | -72.3 |
| CC(C)CSc1nc(NCCc2c[nH]c3ccccc23)c(C#N)c(-c2ccccc2)n1 | 93.5 |
| COc1cc(-c2ccc(/C=N/NC(=O)c3[nH]c4ccc(Br)cc4c3-c3ccccc3)o2)cc(OC)c1OC | 95.6 |
| O=C(N=Nc1c(O)[nH]c2ccc(Cl)cc12)c1ccc2nc(-c3ccccc3)[nH]c2c1 | 109 |
| COc1ccc(-c2nc3cc(C)ccc3n2CC(=O)N=Nc2c(O)[nH]c3ccc(Cl)cc23)cc1 | -13.8 |
| Cn1cc(-c2nc(N)nnc2-c2c[nH]c3ccc(Br)cc23)c2cccnc21 | 29.2 |
| N#Cc1c(-c2ccccc2Cl)cc(-c2c[nH]c3ccccc23)[nH]c1=O | 93.8 |
| Nc1nc(-c2ccccc2)c(N=Nc2ccc(Cl)cc2[N+](=O)[O-])s1 | 108 |
| COc1ccc(/C=C/c2nc3ccccc3nc2Nc2cccc(C)c2)cc1 | 104 |
| COc1ccc(C(=O)Nc2n[nH]c(Nc3ccccc3)c2C#N)cc1 | 111 |
| CCN(CC)c1ccnc(CNCCSC(c2ccccc2)(c2ccccc2)c2ccc(C)cc2)c1 | -88.4 |
| C=C1CCC2C3(C)COC(c4cc(F)cc(F)c4)OC3CCC2(C)C1CC(O)C1=CCOC1=O (configuration not stated) | 61.4 |
| COc1c(F)ccc(C(=O)Nc2ccc3nc(NC(=O)C4CCCN(S(=O)(=O)c5ccc(C(F)(F)F)cc5)C4)sc3c2)c1F (configuration not stated) | 78.2 |
| CC12CC[C@@H]3[C@]4(C)COC(c5cn[nH]c5-c5cccc(Br)c5)O[C@@H]4CC[C@@]3(C)[C@@H]1CC(C1=CCOC1=O)O2 (some centres not stated) | 40.6 |
| CC(C)CSc1nc(NCCc2c[nH]c3ccccc23)c(C#N)c(-c2ccc(F)cc2)n1 | 76.9 |
| Cc1c(C(=O)NNC(=O)c2ccc(Cl)cc2)nnn1-c1ccc(Br)cc1 | 115 |
| CN(C)c1ccnc(NCCCSC(c2ccccc2)(c2ccccc2)c2ccccc2)c1 | 49.6 |
| CCCSc1nc(Nc2ccc(S(N)(=O)=O)cc2)c(C#N)c(-c2cc(OC)c(OC)c(OC)c2)n1 | 24.6 |
| CN1CCN(/C(=N\c2sc(-c3ccccc3)nc2-c2ccccc2)c2ccccc2)CC1 | 111 |
| COc1cc2c(c(OC)c1OC)C(=O)CC(c1cccc(NC(=O)c3cc(NC(=O)[C@H](CO)NC(=O)OC(C)(C)C)ccc3Cl)c1)O2 (some centres not stated) | 27.4 |
| Cc1cc2nc3c([nH]c2cc1C)c1ccc(=O)cc1n3CCN(C)C | 67.3 |
| COc1ccc(-c2nc(SC(C)C)nc(NCCc3c[nH]c4ccccc34)c2C#N)cc1 | 63.8 |
| Cc1ccc([C@H]2C(C(=O)c3ccc(Cl)cc3)C3(N[C@@H]2c2ccccc2)C(=O)Nc2ccccc23)cc1 (some centres not stated) | 37.3 |
| CC(=O)NNc1ccc2nnc(-c3ccccc3)n2n1 | 95.4 |
| CCCCSc1nc(Nc2ccc(C(C)=O)cc2)c(C#N)c(-c2ccc(OC)cc2)n1 | 20.8 |
| COc1ccc(C(SCCNCc2cc(N(C)C)ccn2)(c2ccccc2)c2ccccc2)cc1 | -1.36 |
| O=c1[nH]n(C(=S)N/N=C/c2ccccc2Cl)c(=O)c2ccccc12 | 24 |
| CN(C)CCOc1ccc(C(=O)C2[C@H](c3ccc(Cl)cc3)[C@@H](c3ccccc3)NC23C(=O)Nc2ccccc23)cc1 (some centres not stated) | 73.2 |
| CCS(=O)(=O)N1CCCC(C(=O)Nc2nc3ccc(NC(=O)c4ccc(F)c(OC)c4F)cc3s2)C1 (configuration not stated) | 62.3 |
| CCCCCCCCOc1cccc(S(=O)(=O)Nc2ccc(C)cc2C(=O)O)c1 | 102 |
| Cc1sc2c(c1C)C(c1ccc(Cl)cc1)=N[C@@H](CC(=O)NCCCCCNC(=O)COc1ccc(C3CCC(=O)NC3=O)cc1)c1nnc(C)n1-2 (some centres not stated) | 44.7 |
| CCCCCCn1c(O)c(N=Nc2nc(-c3cc4ccccc4oc3=O)cs2)c2ccccc21 | -94.9 |
| C#CCOc1cc(N(CC)CC)ccc1C(C(=O)NC(C)(C)C)N(C(=O)C1CCc2cc(F)ccc2O1)c1ccc(Br)cc1 (configuration not stated) | 107 |
